Let's go through some pKi measurements on UniProt P56817 together.
Sequence (P56817 whole entry): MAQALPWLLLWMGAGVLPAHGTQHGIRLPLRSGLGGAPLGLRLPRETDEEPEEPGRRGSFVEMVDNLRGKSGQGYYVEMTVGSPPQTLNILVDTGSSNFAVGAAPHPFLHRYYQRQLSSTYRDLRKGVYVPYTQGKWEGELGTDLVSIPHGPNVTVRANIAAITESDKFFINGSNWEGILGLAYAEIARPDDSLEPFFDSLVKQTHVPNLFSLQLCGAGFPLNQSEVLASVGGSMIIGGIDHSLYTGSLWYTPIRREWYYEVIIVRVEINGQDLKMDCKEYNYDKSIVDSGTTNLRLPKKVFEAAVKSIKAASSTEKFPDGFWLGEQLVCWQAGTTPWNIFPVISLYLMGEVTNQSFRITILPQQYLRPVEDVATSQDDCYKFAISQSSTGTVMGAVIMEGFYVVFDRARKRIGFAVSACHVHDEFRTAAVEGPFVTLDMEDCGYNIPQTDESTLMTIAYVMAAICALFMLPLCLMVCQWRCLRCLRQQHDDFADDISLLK
pKi: −log10 of the molar value.
quantity measured: pKi

[[record]]
molecular_string = "CN1C(=N)N[C@](CCC2CCCCC2)(C[C@H]2CCC[C@@H](NC(=O)Nc3ccc4ccccc4n3)C2)C1=O"
reported = 7.66

[[record]]
molecular_string = "CN1C(=N)N[C@](CCC2CCCCC2)(C[C@H]2CCCN(C(=O)OC(C)(C)C)C2)C1=O"
reported = 4.54

[[record]]
molecular_string = "CN1C(=N)N[C@](CCC2CCCCC2)(C[C@H]2CCC[C@@H](NCC3CC3)C2)C1=O"
reported = 6.32

[[record]]
molecular_string = "CN1C(=N)N[C@](CCC2CCCCC2)(C[C@H]2CCC[C@@H](NC3CCCCC3)C2)C1=O"
reported = 6.64

[[record]]
molecular_string = "CCCCC(=O)N1CC[C@H](C[C@@]2(CCC3CCCCC3)NC(=N)N(C)C2=O)C1"
reported = 6.31

[[record]]
molecular_string = "CN1C(=N)N[C@](CCC2CCCCC2)(C[C@H]2CCC[C@@H](NC(=O)Nc3cnc4ccccc4n3)C2)C1=O"
reported = 7.85

[[record]]
molecular_string = "CCCCC(=O)N1CC[C@@H](C[C@@]2(CCC3CCCCC3)NC(=N)N(C)C2=O)C1"
reported = 4.76

[[record]]
molecular_string = "CN1C(=N)N[C@](CCC2CCCCC2)(C[C@H]2CCCNC2)C1=O"
reported = 5.07


(1) CCCCC(=O)N1CCC[C@@H](C[C@@]2(CCC3CCCCC3)NC(=N)N(C)C2=O)C1
(2) CN1C(=N)N[C@](CCC2CCCCC2)(C[C@@H]2CCCNC2)C1=O
Req: Between the entries labeled 1 and 2 , whose measured pKi is lower? Refer to your chosen item by its label in the answer.
Resp: 2
